Tested on: UACC-257 melanoma
test: NCI tumour cell line growth inhibition, 48 h
value_type: TGI

Take a look at these entries with their results.
• COc1cc2c(c3c1c(=O)c1ccccc1n3C)C=CC1(CCCC1)O2 = 31 µM
• C=CCSC1=N/C(=C\c2ccc(Cl)cc2)C(=O)N1CC=C = 76.7 µM
• CCc1cccc(C)c1NS(=O)(=O)c1ccccc1 = > 100 µM
• Cc1cc2c(C)nn(Cc3ccccc3)c2c(C(=O)O)c1C = > 100 µM
• O=C1C[C@H]2CCCN2[C@@H](c2ccccc2)C1 = > 100 µM

Query string: // returns reported TGI for input Clc1ccc(-c2cn3ccnc3c(-c3ccc(Cl)cc3)n2)cc1
Result string: 33.9 µM

Query string: // returns reported TGI for input O=C(O)c1nc(NCc2nc3cc(Cl)ccc3o2)n[nH]1
Result string: > 100 µM

---

Test system: SK-MEL-28 melanoma
test: NCI tumour cell line growth inhibition, 48 h
value_type: TGI

Take a look at these entries with their results.
- O=C1/C(=C/c2ccc([N+](=O)[O-])cc2)CN(C(=O)CCN2CCC(=NO)CC2)C/C1=C\c1ccc([N+](=O)[O-])cc1: 4.72 µM
- O=C(O)CCNS(=O)(=O)c1ccc(NC(=O)c2ccccc2)cc1: > 100 µM
- O=C(Nc1ccccc1)N(C1=NCC(CI)S1)c1ccc(F)c(F)c1 (stereo not given): 38.4 µM
- COc1ccc([C@H]2[C@H]3COC(=O)[C@H]3C(C#N)=C3Sc4ccccc4N32)cc1: > 100 µM
- C/C=C/C(C#N)O[Si](C)(C)C (stereo not given): > 100 µM
- CCN1C(=O)N(CC)C2C1NN=c1s/c(=C\c3ccc(Cl)cc3Cl)c(=O)n12 (stereo not given): > 100 µM
- O=C(NCCCOC(=O)CCCCCCCCC(=O)OCCCNC(=O)NC(=O)c1c[nH]c(=O)[nH]c1=O)NC(=O)c1c[nH]c(=O)[nH]c1=O: > 100 µM
- Cn1c(=O)nc2n(-c3ccc(O)cc3)c3ccccc3nc-2c1=O: > 100 µM
- Cc1cc(C)nc(NS(=O)(=O)c2ccc(NC(=O)c3c4ccccc4nc4ccccc34)cc2)n1: > 100 µM
- c1ncn(C23C4C5C6C4C2C6C53)n1 (stereo not given): > 100 µM

Query string: // returns reported TGI for input CCCCCOc1ccc(C=Nc2ccc(CCc3ccc(N=Cc4ccc(OCCCCC)cc4)cc3)cc2)cc1
Result string: > 100 µM

Query string: // returns reported TGI for input C/C(=N/O)c1cccc(Nc2cc(-n3nnc4ccccc43)nc3ccccc23)c1
Result string: > 68 µM

Query string: // returns reported TGI for input CC1=C([Se]CC(OC(=O)CC[Se]c2ccccc2)C(=O)NC(C)(C)C)C(=O)c2ccccc2C1=O (stereo not given)
Result string: 3.55 µM

Query string: // returns reported TGI for input O=c1ncccn1[C@@H]1O[C@H](CO)[C@H](O)C1O (stereo not given in full)
Result string: > 100 µM

Query string: // returns reported TGI for input COc1cc(C)ccc1C(=O)c1ccc(C)cc1OC
Result string: > 100 µM

Query string: // returns reported TGI for input O=C(/C=C/c1ccccc1)Oc1cccc2cccnc12
Result string: > 86.3 µM

Query string: // returns reported TGI for input N=C1C(=N)c2ccccc2-c2ccccc21.[Cl-].[Ru+2].c1ccc(-c2ccccn2)nc1.c1ccc(-c2ccccn2)nc1
Result string: > 100 µM

Query string: // returns reported TGI for input O=C(Oc1cccnc1)c1cccnc1Nc1ccnc(C(F)(F)F)c1
Result string: > 100 µM

Query string: // returns reported TGI for input NC(=O)CNC(=O)[C@@H]1CC(OCCC(=O)O)CN1C(=O)C1CCCN1C(=O)OCc1ccccc1 (stereo not given in full)
Result string: > 100 µM

Query string: // returns reported TGI for input CN(C)CCNc1ccc2c(=O)n(CCN(C)C)c(=O)n3c4ccc(O)cc4c(=O)c1c23
Result string: 0.863 µM

Query string: // returns reported TGI for input CCC1(O)C(=O)OCc2c1cc1n(c2=O)Cc2cc3ccccc3nc2-1 (stereo not given)
Result string: 18.4 µM

Query string: // returns reported TGI for input c1ccc(NN(Cc2cnccn2)c2ccccc2)cc1
Result string: > 100 µM

---

System: HL-60(TB) leukemia
test: NCI tumour cell line growth inhibition, 48 h
value_type: TGI

- O=S1(=O)c2ccccc2Oc2ccc(C(/C=N/O)=N/O)cc21: 47.3 µM
- Cc1c(OC(C)C(=O)O)ccc2c(-c3ccccc3)cc(=O)oc12 (stereo unspecified): > 100 µM
- CC1=NNC(=O)C1C1C(=O)NN=C(c2c[nH]c3ccccc23)C1Br (stereo unspecified): > 100 µM
- C=C(c1ccccc1)C1(O)CCCCC1N (stereo unspecified): 43.5 µM
- CC(C)/C(Cl)=N/OC(=O)Nc1ccc(Br)cc1: 7.62 µM
- COC1=NCc2ccccc2-c2ccccc21: > 100 µM
- CC(=O)Nc1ccc(-c2cc(C(=O)O)c3cc4ccccc4cc3n2)cc1: > 100 µM
- O=C(NCCCOC(=O)CCCCCCCCC(=O)OCCCNC(=O)NC(=O)c1c[nH]c(=O)[nH]c1=O)NC(=O)c1c[nH]c(=O)[nH]c1=O: > 100 µM
- IC[P+]1(c2ccccc2)CCCC1: > 100 µM
- COc1cc(/C=C/C(=O)/C=C/c2cc(OC)c3c(c2)OCO3)cc2c1OCO2: > 100 µM

Next item in the queue.
Query string: // returns reported TGI for input O=C(/C=C/c1ccccc1)Oc1cccc2cccnc12
Result string: > 28.1 µM

---

Tested on: COLO 205 colon
test: NCI tumour cell line growth inhibition, 48 h
value_type: TGI

Query string: Notebook entry, COLO 205 colon assay: TGI of Cc1ccc2cnc(N)c(C#Cc3cc(C(=O)Nc4ccc(CN5CCN(C)CC5)c(C(F)(F)F)c4)cnc3C)c2c1 = ?
Result string: 1.16 µM

Query string: Notebook entry, COLO 205 colon assay: TGI of COc1ccc(N2C(=O)C3c4[nH]c5ccc(OCc6ccccc6)cc5c4C4CCC(c5ccccc5)CC4C3C2=O)cc1 (stereo unspecified) = ?
Result string: > 100 µM

Query string: Notebook entry, COLO 205 colon assay: TGI of Cn1c(=O)c(N=Nc2c(=O)n(C)c(=O)n3c2[nH]c2ccccc23)c2[nH]c3ccccc3n2c1=O = ?
Result string: > 100 µM

Query string: Notebook entry, COLO 205 colon assay: TGI of N#CN1C2CCC1CC(=O)C2 = ?
Result string: > 100 µM

Query string: Notebook entry, COLO 205 colon assay: TGI of C=C(c1ccccc1)C1(O)CCCCC1N (stereo unspecified) = ?
Result string: > 100 µM

---

System: MOLT-4 leukemia
test: NCI tumour cell line growth inhibition, 48 h; in the data active = GI50 below about 0.43 µM; inactive = the rest
Your response should consist of one outcome taken from t = active, f = inactive

• CCOC(=O)Oc1c(OC)cc(C(=O)c2ccc(OC)c(O)c2OC)cc1OC = f

Read the next record carefully.
Query string: Name the outcome recorded for Nc1ncn([C@@H]2S[C@H](CO)[C@@H](O)[C@@H]2F)c(=O)n1 in the assay.
Result string: t

---

System: OVCAR-8 ovarian
test: NCI tumour cell line growth inhibition, 48 h
Parameter: TGI. Scope: all listed entries.

Take a look at these entries with their results.
* S=C1c2ccc(Cl)cc2-n2cnnc2C2CSCN12 (stereo unspecified) | > 100 µM
* CN(C(=O)/C=C/c1ccccc1)C1C2CN3CCC(O2)C13 (stereo unspecified) | > 100 µM
* COc1cccc(N2C(=O)CSC2c2cccc(Oc3ccccc3)c2)c1 (stereo unspecified) | 50.7 µM

Query string: Notebook entry, OVCAR-8 ovarian assay: TGI of CNC(C)(C)Cc1ccc(Cl)cc1 = ?
Result string: > 100 µM

Query string: Notebook entry, OVCAR-8 ovarian assay: TGI of CC(=O)c1c(C(F)(F)F)n([O-])c2ccccc2[n+]1=O = ?
Result string: > 100 µM

Query string: Notebook entry, OVCAR-8 ovarian assay: TGI of CC12CCC(CC(=O)/C1=C(/Br)I)C2(C)C (stereo unspecified) = ?
Result string: 34.3 µM

---

Test system: DU-145 prostate
test: NCI tumour cell line growth inhibition, 48 h
Parameter: TGI. Scope: all listed entries.

Take a look at these entries with their results.
- CCO/C(=N/S(=O)(=O)C(F)(F)F)N(C(C)C)C(C)C: > 100 µM
- C1CSCCCSCCCSCCCSCCCSCCCSCCCSCCCSC1: > 100 µM
- N#CN1C2CCC1CC(=O)C2: > 100 µM
- CC(=O)O[C@H]1CC(C)(C)C(=C=C/C(C)=C/C=C/C=C/C=C(C)/C=C2C=C(/C=C/[C@@]34O[C@]3(C)C[C@@H](O)CC4(C)C)C(=O)O/2)[C@](C)(O)C1: > 100 µM
- COC(=O)Cc1cc(O)c2c(c1O)C(=O)c1ccccc1C2=O: > 100 µM
- O=C1/C(=C/c2ccc([N+](=O)[O-])cc2)CN(C(=O)CCN2CCC(=NO)CC2)C/C1=C\c1ccc([N+](=O)[O-])cc1: 4.65 µM
- COc1cc2c(c(O)c1O)C(=O)C1CCC(=O)N1C2c1cccc2ccccc12 (stereo unspecified): > 50 µM
- O=C(O)CC(Cc1ccccc1Cl)C(=O)O (stereo unspecified): > 100 µM
- c1ccc(-c2nc(-c3ccccn3)nc(-c3ccccn3)n2)nc1: > 100 µM
- FC(F)(F)c1cccc(-c2nc3nc(Cl)c(Cl)nc3[nH]2)c1: > 100 µM

Query string: // returns reported TGI for input c1ccc(/C(=N/Nc2nc3ccccc3s2)C2CCCCC2)nc1
Result string: 34.2 µM
